Attribution: patent US20250114374A1

System: RS4; 11 with G101V mutation
Assay: In vitro anti-proliferation assay (ATPlite luminescence) in BCL-2-dependent ALL cell line RS4;11 with G101V mutation
Assay type: cell-based
Settings: cellular anti-proliferative IC50, about 72 hours, medium with 10% FBS, ATPlite; read-out: RS411-G101V IC50
READOUT_TYPE: IC50 (nM)

>>> endpoint_value("CC(C)Oc1ccccc1[C@@H]1CN(c2ccccn2)CCN1C1CC2(CCN(c3ccc(C(=O)NS(=O)(=O)c4cc5c(c([N+](=O)[O-])c4)N[C@H](C4CCOCC4)CO5)c(N4c5cc6cc[nH]c6nc5O[C@H]5COCC[C@@H]54)c3)CC2)C1")
180
>>> endpoint_value("COc1cc(CN2CCN(C3CC4(CCN(c5ccc(C(=O)NS(=O)(=O)c6ccc(NCC7CCC(C)(O)CC7)c([N+](=O)[O-])c6)c(N6c7cc8cc[nH]c8nc7O[C@H]7COCC[C@@H]76)c5)CC4)C3)[C@@H](c3ccccc3OC(C)C)C2)cnc1N1CCOCC1 (some centres unmarked) [Example 119]")
14.6
>>> endpoint_value("Cc1ccccc1[C@@H]1CN(C2CCC(C)(O)CC2)CCN1C1CC2(CCN(c3ccc(C(=O)NS(=O)(=O)c4ccc(NCC5CCC(C)(O)CC5)c([N+](=O)[O-])c4)c(N4c5cc6cc[nH]c6nc5O[C@H]5COCC[C@@H]54)c3)CC2)C1 (some centres unmarked)")
10.9
>>> endpoint_value("CC(C)Oc1ccccc1[C@@H]1CN([C@@H]2COCc3c2ccc(F)c3F)CCN1C1CC2(CCN(c3ccc(C(=O)NS(=O)(=O)c4cc5c(c([N+](=O)[O-])c4)N[C@H](C4CCOCC4)CO5)c(N4c5cc6cc[nH]c6nc5O[C@H]5COCC[C@@H]54)c3)CC2)C1")
9.68
>>> endpoint_value("Cc1ccccc1[C@@H]1CN(C2CCC(N3CCOC[C@@H]3C)CC2)CCN1C1CC2(CCN(c3ccc(C(=O)NS(=O)(=O)c4cc5c(c([N+](=O)[O-])c4)N[C@H](C4CCOCC4)CO5)c(N4c5cc6cc[nH]c6nc5O[C@H]5COCC[C@@H]54)c3)CC2)C1 (some centres unmarked) [Example 204]")
27.5
>>> endpoint_value("CC(C)Oc1ccccc1[C@@H]1CN(c2cccnc2)CCN1C1CC2(CCN(c3ccc(C(=O)NS(=O)(=O)c4cc5c(c([N+](=O)[O-])c4)N[C@H](C4CCOCC4)CO5)c(N4c5cc6cc[nH]c6nc5O[C@H]5COCC[C@@H]54)c3)CC2)C1")
136
>>> endpoint_value("COc1ncc(CN2CCN(C3CC4(CCN(c5ccc(C(=O)NS(=O)(=O)c6ccc(NCC7CCC(C)(O)CC7)c([N+](=O)[O-])c6)c(N6c7cc8cc[nH]c8nc7O[C@H]7COCC[C@@H]76)c5)CC4)C3)[C@@H](c3ccccc3OC(C)C)C2)cc1C1CC1 (some centres unmarked)")
35.6
>>> endpoint_value("COc1cc(CN2CCN(C3CC4(CCN(c5ccc(C(=O)NS(=O)(=O)c6ccc(NCC7CCC(C)(O)CC7)c([N+](=O)[O-])c6)c(N6c7cc8cc[nH]c8nc7O[C@H]7COCC[C@@H]76)c5)CC4)C3)[C@@H](c3ccccc3C)C2)cnc1OC (some centres unmarked)")
28.3
